Catalogue of protein stability index readings, one per entry.
B1: MATN2 (parent)
chain: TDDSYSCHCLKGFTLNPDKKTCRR

variants of: B1; assay: protein stability index of a GFP-peptide fusion (GPS, HEK-293T) (PSI 1-6); higher = more stable; conditions: c terminus: a fixed tail appended;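 note: lentivirally expressed fusions sorted by FACS into six bins by GFP to DsRed ratio, PSI derived from sequencing read proportions per bin multiplied by bin number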
Just the number, please, no unit attached.

QUERY: Given C22M , state its recorded protein stability index.
RESULT: 1.88

QUERY: Repeat with R24L
RESULT: 2.38

QUERY: Repeat with Y5N
RESULT: 3.36
